tested_system: NET (Rattus norvegicus)
Construct: the supernatants were retained on ice (synaptosomal preparation); from tissue; host or cells: rat whole brain minus cerebellum and caudate, synaptosomes
assay_text: NE release assay (synaptosomes, [3H]MPP+)
Assay type: biochemical
measurement_context: Table 3; 10 μM
Procedure: Rat caudate (for DA release) or whole brain minus cerebellum and caudate (for NE and 5-HT release), was homogenized in ice-cold 10% sucrose containing 1 μM reserpine. Nomifensine (100 nM) and GBR12935 (100 nM) were added to the sucrose solution for [^3H]5-HT release experiments to block any potential [^3H]5-HT reuptake into NE and DA nerve terminals. […] In substrate reversal experiments, statistical significance was determined using the Student's t-test.
reported_metric: activation at 10 µM (%)
Write the answer as a number in %, unit excluded.

[[record]]
compound = "C[C@H]1NCCOC1c1cccc(Cl)c1 (stereo in doubt) [PAL594, 2-(3-chloro-phenyl)-3-methyl-morpholine]"
tested_system = "NET (Rattus norvegicus)"
meas_value = 82

[[record]]
compound = "CC1NCCOC1(O)c1cccc(F)c1 (centres unmarked) [PAL587]"
tested_system = "NET (Rattus norvegicus)"
meas_value = 67

[[record]]
compound = "Cc1cccc(C2(O)OCCNC2C)c1 (centres unmarked) [PAL589, 3-methyl-2-(3′-tolyl)morpholin-2-ol]"
tested_system = "NET (Rattus norvegicus)"
meas_value = 47

[[record]]
compound = "CC1NCCOC1(O)c1ccccc1 (centres unmarked) [PAL583, 3-methyl-2-phenylmorpholin-2-ol]"
tested_system = "NET (Rattus norvegicus)"
meas_value = 69

[[record]]
compound = "c1ccc(C2CNCCO2)cc1 (centres unmarked) [PAL632]"
tested_system = "NET (Rattus norvegicus)"
meas_value = 96

[[record]]
compound = "Fc1ccc(C2CNCCO2)cc1 (centres unmarked) [PAL635, 2-(4-fluorophenyl)morpholine]"
tested_system = "NET (Rattus norvegicus)"
meas_value = 100

[[record]]
compound = "CC1NCCOC1c1cccc(F)c1 (centres unmarked) [PAL593, 2-(3-fluoro-phenyl)-3-methyl-morpholine]"
tested_system = "NET (Rattus norvegicus)"
meas_value = 93


# input Value wanted: activation at 10 µM (NET (Rattus norvegicus)) of entry CC1NCCOC1(O)c1cccc(Cl)c1 (centres unmarked) [PAL590]
# output 62

* * *

tested_system: DAT (Rattus norvegicus)
Sequence (P23977 whole entry): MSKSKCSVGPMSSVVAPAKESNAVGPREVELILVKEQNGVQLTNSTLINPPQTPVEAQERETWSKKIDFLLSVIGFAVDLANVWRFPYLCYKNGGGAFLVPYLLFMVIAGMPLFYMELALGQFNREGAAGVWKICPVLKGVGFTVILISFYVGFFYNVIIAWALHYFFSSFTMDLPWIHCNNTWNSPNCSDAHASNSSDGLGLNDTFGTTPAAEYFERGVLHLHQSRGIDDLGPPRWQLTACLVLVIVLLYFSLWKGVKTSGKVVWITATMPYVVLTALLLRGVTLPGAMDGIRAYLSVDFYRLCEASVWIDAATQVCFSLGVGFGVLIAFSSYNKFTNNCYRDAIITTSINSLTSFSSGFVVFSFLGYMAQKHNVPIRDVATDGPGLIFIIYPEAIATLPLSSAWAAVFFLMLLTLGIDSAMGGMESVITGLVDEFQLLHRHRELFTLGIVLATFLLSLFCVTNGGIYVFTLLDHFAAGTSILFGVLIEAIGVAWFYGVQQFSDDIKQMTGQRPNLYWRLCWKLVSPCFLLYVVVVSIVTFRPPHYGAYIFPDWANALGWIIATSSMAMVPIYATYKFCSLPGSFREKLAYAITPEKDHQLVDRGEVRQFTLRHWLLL
assay_text: DA release assay (synaptosomes, [3H]MPP+)
pEC50: −log10 of the molar value.
Decide using pEC50: a value greater than or equal to 7 is 1, a smaller one is 0.

Reference set, count: 4
[[record]]
compound = "C[C@H]1NCCO[C@H]1c1ccccc1 [PAL60, reference compound]"
answer_label = 0

[[record]]
compound = "C[C@H]1CO[C@@H](c2ccccc2)CN1 [PAL 730, (2S,5S)-5-Methyl-2-phenyl-morpholine]"
answer_label = 0

[[record]]
compound = "C[C@H]1NCCOC1c1cccc(F)c1 (stereo in doubt) [PAL593, 2-(3-fluoro-phenyl)-3-methyl-morpholine]"
answer_label = 1

[[record]]
compound = "C[C@H]1NCCOC1c1cccc(Cl)c1 (stereo in doubt) [PAL594, 2-(3-chloro-phenyl)-3-methyl-morpholine]"
answer_label = 1


# input # bool: pEC50 of C[C@@H]1NCCO[C@H]1c1ccccc1 [PAL57, reference compound] >= 7
# output 0

# input State whether the measured pEC50 reaches 7, counting equality as reaching it, for Fc1ccc(C2CNCCO2)cc1 (centres unmarked) [PAL635, 2-(4-fluorophenyl)morpholine]
# output 0

# input Please indicate if the recorded pEC50 for C[C@H]1CO[C@@H](c2cccc(Cl)c2)CN1 [PAL 738] meets or exceeds 7.
# output 1

* * *

tested_system: NET (Rattus norvegicus, UniProt Q63380)
Construct: the supernatants were retained on ice (synaptosomal preparation); from tissue; host or cells: rat whole brain minus cerebellum and caudate, synaptosomes
Sequence (Q63380 1-617): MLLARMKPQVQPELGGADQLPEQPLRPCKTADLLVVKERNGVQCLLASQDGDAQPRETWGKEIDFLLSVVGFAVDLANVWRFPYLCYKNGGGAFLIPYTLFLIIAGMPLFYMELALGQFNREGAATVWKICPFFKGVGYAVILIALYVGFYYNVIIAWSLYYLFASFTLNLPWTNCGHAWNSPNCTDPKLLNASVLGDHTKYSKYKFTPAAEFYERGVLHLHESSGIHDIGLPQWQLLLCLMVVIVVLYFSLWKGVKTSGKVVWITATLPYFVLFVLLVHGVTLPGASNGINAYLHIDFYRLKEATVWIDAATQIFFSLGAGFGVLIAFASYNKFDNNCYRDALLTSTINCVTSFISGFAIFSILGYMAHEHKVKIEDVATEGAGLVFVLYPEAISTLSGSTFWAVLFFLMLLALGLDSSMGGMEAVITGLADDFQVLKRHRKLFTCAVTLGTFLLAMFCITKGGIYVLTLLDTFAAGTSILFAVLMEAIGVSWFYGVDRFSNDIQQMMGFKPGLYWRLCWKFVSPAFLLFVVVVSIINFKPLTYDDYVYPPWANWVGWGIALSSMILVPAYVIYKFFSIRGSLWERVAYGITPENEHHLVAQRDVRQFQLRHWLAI
assay_text: NE release assay (synaptosomes, [3H]MPP+)
Format: biochemical
measurement_context: NE Rel (EC50), Table 4
Counter-ions that a name gives are not always drawn.
reported_metric: EC50 (nM)
Field: numeric (nM). Do not append units.

[[record]]
molecule = "c1ccc(C2CNCCO2)cc1 (stereo not drawn)"
reported_metric = "EC50"
meas_value = 79


# input Which EC50 reading was recorded for the molecule C[C@H]1NCCOC1c1cccc(Cl)c1 (stereo in doubt) ?
# output 75

# input Fill in: EC50 of Fc1ccc(C2CNCCO2)cc1 (stereo not drawn) is ___
# output 285

# input Query (molecule): C[C@H]1NCCOC1c1cccc(F)c1 (stereo in doubt) ; field requested: EC50
# output 30

# input GET /values?readout=EC50&item= C[C@H]1NCCO[C@@H]1c1ccccc1 [PAL56, (+)-phenmetrazine, reference compound]
# output 38

# input Which EC50 reading was recorded for the molecule CC1NCCOC1c1ccc2ccccc2c1 (stereo not drawn) [PAL 704, hydrochloride] ?
# output 203

* * *

tested_system: NET (Rattus norvegicus)
Construct: the supernatants were retained on ice (synaptosomal preparation); from tissue; host or cells: rat whole brain minus cerebellum and caudate, synaptosomes
assay_text: NE release assay (synaptosomes, [3H]MPP+)
Type: biochemical
Procedure: Rat caudate (for DA release) or whole brain minus cerebellum and caudate (for NE and 5-HT release), was homogenized in ice-cold 10% sucrose containing 1 μM reserpine. Nomifensine (100 nM) and GBR12935 (100 nM) were added to the sucrose solution for [^3H]5-HT release experiments to block any potential [^3H]5-HT reuptake into NE and DA nerve terminals. […] In substrate reversal experiments, statistical significance was determined using the Student's t-test.
Listed here are compounds together with their documented EC50.
Response body: numeric value in nM, unit text excluded.

[[record]]
molecule = "C[C@H]1CO[C@@H](c2ccccc2)CN1"
tested_system = "NET (Rattus norvegicus)"
reported_metric = "EC50"
meas_value = 79


# input Record request: EC50 value, item C[C@H]1CO[C@@H](c2cccc(Cl)c2)CN1
# output 65

* * *

tested_system: SERT (Rattus norvegicus, UniProt P31652)
Sequence (P31652 whole entry): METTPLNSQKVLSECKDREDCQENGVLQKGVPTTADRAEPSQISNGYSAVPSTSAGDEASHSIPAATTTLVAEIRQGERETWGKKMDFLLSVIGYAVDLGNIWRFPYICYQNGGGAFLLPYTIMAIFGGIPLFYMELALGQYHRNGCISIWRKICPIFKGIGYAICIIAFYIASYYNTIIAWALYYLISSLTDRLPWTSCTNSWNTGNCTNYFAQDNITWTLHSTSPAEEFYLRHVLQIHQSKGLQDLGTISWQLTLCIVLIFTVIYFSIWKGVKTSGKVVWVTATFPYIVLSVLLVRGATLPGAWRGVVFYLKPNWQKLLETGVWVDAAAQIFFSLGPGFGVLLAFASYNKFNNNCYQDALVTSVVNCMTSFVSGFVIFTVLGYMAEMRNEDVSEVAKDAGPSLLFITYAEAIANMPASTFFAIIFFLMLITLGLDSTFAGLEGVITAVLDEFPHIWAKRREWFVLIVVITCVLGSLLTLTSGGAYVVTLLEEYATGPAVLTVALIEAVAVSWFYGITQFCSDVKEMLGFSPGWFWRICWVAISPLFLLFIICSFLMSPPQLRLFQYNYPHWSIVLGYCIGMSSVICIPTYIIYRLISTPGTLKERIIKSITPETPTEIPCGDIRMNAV
assay_text: 5-HT release assay (synaptosomes, [3H]5-HT)
Type: biochemical
Design: the supernatants were retained on ice (synaptosomal preparation); from tissue; host or cells: rat whole brain minus cerebellum and caudate, synaptosomes
measurement_context: Table 3; 10 μM
Method: Rat caudate (for DA release) or whole brain minus cerebellum and caudate (for NE and 5-HT release), was homogenized in ice-cold 10% sucrose containing 1 μM reserpine. Nomifensine (100 nM) and GBR12935 (100 nM) were added to the sucrose solution for [^3H]5-HT release experiments to block any potential [^3H]5-HT reuptake into NE and DA nerve terminals. […] In substrate reversal experiments, statistical significance was determined using the Student's t-test.
We begin with a simple list: items and their reported activation at 10 µM.
Include the unit right after the number.

The following compounds have reported results that may help.
[[record]]
compound = "CC1NCCOC1(O)c1cccc(F)c1 (centres unmarked)"
reported_metric = "activation at 10 µM"
meas_value = "6%"

[[record]]
compound = "Cc1cccc(C2(O)OCCNC2C)c1 (centres unmarked)"
reported_metric = "activation at 10 µM"
meas_value = "56%"

[[record]]
compound = "CC1NCCOC1c1cccc(F)c1 (centres unmarked)"
reported_metric = "activation at 10 µM"
meas_value = "95%"


# input Requested read-out: activation at 10 µM. Entry: c1ccc(C2CNCCO2)cc1 (centres unmarked)
# output 31%

* * *

tested_system: DAT (Rattus norvegicus)
assay_text: DA release assay (synaptosomes, [3H]MPP+)
Assay type: biochemical
Parameters: the supernatants were retained on ice (synaptosomal preparation); from tissue; host or cells: rat caudate synaptosomes
measurement_context: Table 3; 10 μM
Measured activation at 10 µM accompanies every entry in the list below.
Just the number please, in %, no unit attached.

In the examples that follow, each entry is paired with its recorded activation at 10 µM.
[[record]]
compound = "Cc1cccc(C2(O)OCCNC2C)c1 (stereo not shown)"
tested_system = "DAT (Rattus norvegicus)"
meas_value = 28

[[record]]
compound = "CC1NCCOC1(O)c1cccc(Cl)c1 (stereo not shown)"
tested_system = "DAT (Rattus norvegicus)"
meas_value = 39

[[record]]
compound = "CC1NCCOC1(O)c1ccccc1 (stereo not shown)"
tested_system = "DAT (Rattus norvegicus)"
meas_value = 29


// next item, activation at 10 µM requested
# input Query: activation at 10 µM; subject: c1ccc(C2CNCCO2)cc1 (stereo not shown)
# output 98

* * *

tested_system: NET (Rattus norvegicus)
Construct: the supernatants were retained on ice (synaptosomal preparation); from tissue; host or cells: rat whole brain minus cerebellum and caudate, synaptosomes
assay_text: NE release assay (synaptosomes, [3H]MPP+)
Format: biochemical
measurement_context: Table 4; % EC50 of release
reported_metric: NE Rel (%)
Entry rule: numbers only, all in %.

[[record]]
compound = "CC1NCCOC1c1ccc(F)c(Cl)c1.Cl (stereo not shown) [PAL 821]"
tested_system = "NET (Rattus norvegicus)"
meas_value = 80

[[record]]
compound = "CC1NCCOC1c1cccc(C#N)c1.Cl (stereo not shown) [PAL 786]"
tested_system = "NET (Rattus norvegicus)"
meas_value = 100

[[record]]
compound = "CC1NCCOC1c1ccc(Cl)cc1.CC1NCCOC1c1ccc(Cl)cc1.O=C(O)/C=C/C(=O)O (stereo not shown) [PAL 749]"
tested_system = "NET (Rattus norvegicus)"
meas_value = 93

[[record]]
compound = "Cc1cccc(C2OCCNC2C)c1.Cc1cccc(C2OCCNC2C)c1.O=C(O)/C=C/C(=O)O (stereo not shown) [PAL 773]"
tested_system = "NET (Rattus norvegicus)"
meas_value = 80

[[record]]
compound = "CC1NCCOC1c1cccc(O)c1.Cl (stereo not shown) [PAL 780]"
tested_system = "NET (Rattus norvegicus)"
meas_value = 100


# ---- query compound ----
# input // lookup NE Rel (%) for COc1cccc(C2OCCNC2C)c1.COc1cccc(C2OCCNC2C)c1.O=C(O)/C=C/C(=O)O (stereo not shown) [PAL 823]
# output 86

The values you see were collected from patent US9617229B2.
